assay: Human HepG2 cell viability assay in 384 well format; assay type: toxicity, cell-based; parameters: dose 125 nL, time 70.5 hour; concentration not given beside the values; conditions: HepG2 cells, read-out: Inhibition
Answer each item with its documented cytotoxicity at 70.5 h.
Numbers only, in %.

// worked examples, cytotoxicity at 70.5 h included
> print(dat)
                                   compound  valuemeasured
1  Cc1c(NC(=O)CN(C)S(C)(=O)=O)cccc1OC1CCCC1             -4
2             COC1CCN(C(=O)Cn2nc(C)cc2C)CC1          -3.13
3  CC(C)(C)c1n[nH]c(C2CN(C(=O)CCc3cccs3)CCO2)n1 (stereo not drawn)          -8.77

State recorded cytotoxicity at 70.5 h for all listed compounds.
1. NC(=O)c1c(-c2ccc(Cl)cc2)csc1NC(=O)CCC(=O)O
2. Cn1cc(NCCOc2ccc(F)cc2)cn1
3. CN(C)C(=O)N1CCN(C(=O)c2ccc(Cl)c(Cl)c2)C(C)(C)C1
4. CC(C)NC(=O)[C@H]1C[C@@H]2[C@@H](C1)OCCN2Cc1nccs1
5. Cc1cccc(C2(CNC(=O)CCN3C(=O)CCC3=O)CCCC2)c1
6. O=C(NCc1ccc2c(c1)CCCO2)c1cn2c(n1)CNCC2
7. CCN(Cc1cnn(C)c1)S(=O)(=O)N1CCCC1c1ccco1 (stereo not drawn)
8. CCc1cc(N[C@H]2CC[C@H](O)CC2)n2nc(C)c(C)c2n1

Result ::
1. -4.48
2. -5.12
3. 0.62
4. -4.27
5. 21
6. 5.37
7. 3.59
8. -0.423

I need cytotoxicity at 70.5 h for every entry listed below, if you could help.
1. CCC(CO)N(Cc1ccco1)C(=O)c1cccnc1NC (stereo not drawn)
2. CC(C)=CCN1CCOC(Cn2nc(C)cc2C)C1 (stereo not drawn)

Result ::
1: -2.71; 2: 15.4

For every listed record, write down its cytotoxicity at 70.5 h.
1. CCS(=O)(=O)N1CCc2ccc(NC(=O)Nc3cccc(C#N)c3)cc21
2. Cc1cccc(-n2c(C)cc(C(=O)N3CCn4c(C)nnc4C3)c2C)c1
3. Cc1cnc(N2CCc3cc(C(=O)O)c(N(C)C)nc3CC2)nc1
4. COCCn1ccnc1C1CCCN(C(=O)c2ccncc2F)C1 (stereo not drawn)
5. Cc1cc(C)c(C(=O)N2CCOC(CCN(C)C)C2)o1 (stereo not drawn)
6. O=C(CO)N1CCC2(CC1)CC(=O)N(Cc1cc(F)cc(F)c1)C2
7. Cc1nc(C)c(CCNc2ccc(S(N)(=O)=O)cc2C#N)s1
8. CCSCCC(C)N(C)C(=O)c1ccc2nncn2c1 (stereo not drawn)

Result ::
1. 17.6
2. -1.57
3. -7.94
4. 11
5. -14.2
6. -1.76
7. -15
8. -4.21

// for each compound below, give its cytotoxicity at 70.5 h
1. Cc1n[nH]c(C2CN(CC(=O)NCc3cccs3)CCO2)n1 (stereo not drawn)
2. N#Cc1ccc(CNC(=O)NCCNC(=O)C2CCCC2)c(F)c1

Result ::
1: -86.1; 2: 13.4

Give cytotoxicity at 70.5 h for each listed item.
1. COc1cc2nc(NCCN3CCNC3=O)cc(C)c2cc1OC
2. C[C@H]1CCCCN1CCCNc1nccc(-c2c[nH][nH]c2=O)n1
3. CC(C)OCCCNS(=O)(=O)c1ccc2c(c1)NC(=O)C(C)O2 (stereo not drawn)
4. CC(C)Cn1cc(NCc2cscn2)cn1
5. Cc1nn(-c2ccc(C(=O)O)cc2)c2c1C(C(F)(F)F)SCC(=O)N2 (stereo not drawn)
6. Cc1cnc(C)c(-c2cc(O)c3c(c2)CN(Cc2nccs2)CCO3)n1
7. O=C(NC1CCCCC1)C1CCCN(C(=O)Nc2ccccn2)C1 (stereo not drawn)

Result ::
-0.54
4.41
-4.7
9.5
-5.65
-4.63
-15.3

Would you mind giving cytotoxicity at 70.5 h for every compound in the list below?
1. COc1ccc(Cl)c(NCC(=O)NCC(=O)N2CCCC2)c1
2. O=C(CCCc1ccccc1)N1CCC(Nc2cccnn2)CC1
3. CCc1noc(C(C)N2CCOCC2)n1 (stereo not drawn)
4. CCOc1ncccc1CNC(=O)Nc1ccc(CC)cc1

Result ::
-18.4
-4.29
3.88
-7.83

Go through the items and report each one's cytotoxicity at 70.5 h.
1. CC(C)[C@@H]1CN(c2ccc(F)cn2)C[C@H]1NS(C)(=O)=O
2. N#Cc1csc(CN(CC(=O)N2CCCC2)CC2CCCO2)c1 (stereo not drawn)
3. CC(=O)N(Cc1noc(C)n1)C1CCN(CCOc2ccccc2)C1 (stereo not drawn)
4. CN(CCCc1cc(-c2cccc(F)c2)n[nH]1)C(=O)Cn1cncn1

Result ::
1: 12.1; 2: 0.764; 3: 1.16; 4: 22.1

---

test: Human HepG2 cell viability assay in 384 well format; format: toxicity, cell-based; design: dose 125 nL, time 70.5 hour; concentration not given beside the values; conditions: HepG2 cells, read-out: Inhibition
Exercise: for every item that follows, state its recorded cytotoxicity at 70.5 h.
Give bare numbers, in %.

> print(dat)
                           compound  valuemeasured
1  Cc1noc(CNC(=O)NCCc2ccc(Cl)cc2)n1          -3.31

Batch request: cytotoxicity at 70.5 h for each of the following compounds.
1. CN(CC1(CO)CCCC1)[C@@H]1c2ccccc2C2(CCNCC2)[C@H]1O
2. O=C(NCCCN1CCCC1=O)c1nc(-c2ccc3cc[nH]c3c2)no1
3. CCOCC1CN(Cc2cccs2)Cc2nn(C)cc21 (configuration not stated)

Result ::
1. -3.86
2. -22.5
3. -6.21

Could you report cytotoxicity at 70.5 h for every entry in the following list?
1. CN(C)Cc1cnc2n1CCN(C(=O)NCc1ccccc1)CC2
2. CCCNC(=O)CNc1cc(C(=O)N2CCSCC2)ccc1C

Result ::
1. 4.32
2. -6

Reported cytotoxicity at 70.5 h for CC(C)NC[C@@]1(COc2ccccc2)C[C@@H](O)[C@@H](O)C1 was -5.31

---

experiment: Human HepG2 cell viability assay in 384 well format; type: toxicity, cell-based; parameters: dose 125 nL, time 70.5 hour; concentration not given beside the values; details: HepG2 cells, read-out: Inhibition
valueKind: cytotoxicity at 70.5 h (%)
Answers are plain numbers, in %.

// known answers, use as guide
> print(dat)
                                   compound               valuekind  valuemeasured
1              Cc1nc(N2CCCC2)ccc1NCc1ccccn1  cytotoxicity at 70.5 h          -96.9
2  CC(C)(C)C(=O)N1CCC(c2nc(O)cc(-c3ccncc3)n2)CC1  cytotoxicity at 70.5 h          -1.05
3  Cc1cnn(CC2CCCN2Cc2ncc(-c3ccccc3)o2)c1 (stereo not given)  cytotoxicity at 70.5 h          -18.8
4  CCn1cc(NC(=O)C2CCN(CC(=O)NC(C)(C)CC)CC2)cn1  cytotoxicity at 70.5 h          -2.19
5  CCCc1noc(CCC(=O)N2CCCC2c2ccc(OC)cc2)n1 (stereo not given)  cytotoxicity at 70.5 h          -16.8
6  COc1cc(N2CCCC(c3ncc[nH]3)C2)ncn1 (stereo not given)  cytotoxicity at 70.5 h          -1.53

Quick one: give me cytotoxicity at 70.5 h for each item below, same order please.
1. O=C(NCCc1ccccn1)[C@@H]1CC[C@@H]2[C@@H](CCN2Cc2ccoc2)O1
2. O=C([C@H]1CCCO1)N1Cc2nccn2CC(COc2cccnc2)C1 (stereo not given in full)

Result ::
[0.0992, -4.93]

Give cytotoxicity at 70.5 h for each of the items listed below.
1. c1ccc(CCN2CCN(C3CCOC4(CCOCC4)C3)CC2)cc1 (stereo not given)
2. Cc1cc(=O)n2ncnc2n1CC(O)c1cc(Cl)ccc1Cl (stereo not given)
3. CC(C)CN1CCc2[nH]cnc2C12CCN(C(=O)c1ccccn1)CC2
4. O=C(NCC1SCCc2ccccc21)c1cscn1 (stereo not given)
5. Cc1noc2ncc(C(=O)NCC3CCS(=O)(=O)C3)cc12 (stereo not given)
6. Cc1cc(C)c2ncn(CCOCCO)c(=O)c2c1

Result ::
[-5.08, -22.2, -3.63, -13.5, -7.14, -5.3]

Per the record, Cc1cccc(C(=O)N2C[C@H]3CC[C@@H]2CN(S(=O)(=O)N(C)C)C3)n1 has cytotoxicity at 70.5 h of -10.2

---

Answer each item with its documented cytotoxicity at 70.5 h.
assay: Human HepG2 cell viability assay in 384 well format; assay type: toxicity, cell-based; set-up: dose 125 nL, time 70.5 hour; concentration not given beside the values; conditions: HepG2 cells, read-out: Inhibition
One number for each entry, in %.

Would you mind giving cytotoxicity at 70.5 h for every compound in the list below?
1. O=C(NCCN1CCC(c2cccs2)CC1)c1ccccc1C(F)(F)F
2. N#Cc1ccccc1OCCN1CCCCC1C(=O)N1CCOCC1 (stereo not given)
3. CSc1cc2c(cc1NC(=O)NCc1ccco1)OCCO2
4. CC(C(=O)NC1CCN(C)CC1)n1nc(C(F)(F)F)c(Cl)c1C1CC1 (stereo not given)
5. Cc1nc(C(=O)N2CCCC2c2c(C)nn(C)c2C)ccc1C#N (stereo not given)

Result ::
1. 1.14
2. 7.77
3. -5.54
4. 11.6
5. -7.57
